- System: M. tuberculosis H37Rv growth inhibition
- assayComment: Mycobacterium tuberculosis H37Rv growth inhibition, putative kinase inhibitor library, confirmatory dose response (AID 2842);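 also: bacteria incubated one week before Alamar blue readout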
Attribute: IC90

# compound, IC90
records = [
    ("CCOC(=O)N1CCc2c(sc(NC(=O)c3ccccc3)c2C(N)=O)C1", "1.84 µg/mL"),
    ("COC(=O)c1c(NC(=O)c2cc3ccccc3cc2OC)sc2c1CC(C)(C)NC2(C)C", "31.8 µg/mL"),
    ("Cc1ccc(NC(=O)CC2C(=O)Nc3ccccc3N2C(=O)c2ccc(Br)cc2)cc1C (centres undefined)", "2.24 µg/mL"),
    ("COC(=O)c1ccc(NC(=O)CSc2nc(-c3ccccc3C)ns2)cc1", "0.79 µg/mL"),
    ("Fc1cccc2sc(Nc3nnc(-c4ccccc4)o3)nc12", "9.14 µg/mL"),
    ("Cc1nc2cc(NC(=O)Nc3ccc(Cl)cc3)ccc2n1-c1ccccc1", "6.97 µg/mL"),
    ("O=C(Nc1nnc(-c2cc(Cl)ccc2Cl)o1)c1ccc(Cl)cc1Cl", "0.74 µg/mL"),
    ("O=C(c1ccc(NC2=C(Cl)C(=O)N(Cc3ccccc3)C2=O)cc1)N1CCCCCC1", "11.2 µg/mL"),
    ("COc1ccc(C)c2sc(N(CCCn3ccnc3)C(=O)Cc3ccccc3)nc12", "21.1 µg/mL"),
    ("COC(=O)CSCC(=O)Nc1nnc(-c2cccc(C)c2)s1", "23.9 µg/mL"),
    ("CCOc1ccc(-c2nnc3c4cc5c(cc4n(Cc4cccc(F)c4)cc2-3)OCO5)cc1", "54.2 µg/mL"),
    ("O=C(Nc1nnc(-c2ccc(Br)cc2)o1)c1cc(Cl)ccc1Cl", "2.67 µg/mL"),
    ("O=C(Nc1nnc(-c2ccc3c(c2)CCCC3)o1)C1=COCCO1", "9.82 µg/mL"),
    ("CCOC(=O)c1c(NC(=O)c2cccc3ccccc23)sc2c1CCN(CC)C2", "5.45 µg/mL"),
]
